System: HepG2
method_summary: Cytotoxicity against human HepG2 cells assessed as reduction in cell number incubated for 72 hrs
Assay type: functional, cell-based
measurement_context: HepG2, 72 h
# IC50 per record follows
The reply should contain only the number, in µM.

> print(dat)
                                   molecule  units  readout.value
1  CCN(CC)CCCC(C)Nc1ccnc2cc(Cl)ccc12 (racemic) [CHLOROQUINE]     µM             25

# input for lookup
Field: IC50 (HepG2). Entry: CN1CCC(Cc2cccc(CNC3(c4ccc(F)cc4)CCCC3)c2)CC1 2.73

###

assay_system: Nuclear receptor subfamily 1 group D member 2 (Homo sapiens)
Sequence (Q14995 whole entry): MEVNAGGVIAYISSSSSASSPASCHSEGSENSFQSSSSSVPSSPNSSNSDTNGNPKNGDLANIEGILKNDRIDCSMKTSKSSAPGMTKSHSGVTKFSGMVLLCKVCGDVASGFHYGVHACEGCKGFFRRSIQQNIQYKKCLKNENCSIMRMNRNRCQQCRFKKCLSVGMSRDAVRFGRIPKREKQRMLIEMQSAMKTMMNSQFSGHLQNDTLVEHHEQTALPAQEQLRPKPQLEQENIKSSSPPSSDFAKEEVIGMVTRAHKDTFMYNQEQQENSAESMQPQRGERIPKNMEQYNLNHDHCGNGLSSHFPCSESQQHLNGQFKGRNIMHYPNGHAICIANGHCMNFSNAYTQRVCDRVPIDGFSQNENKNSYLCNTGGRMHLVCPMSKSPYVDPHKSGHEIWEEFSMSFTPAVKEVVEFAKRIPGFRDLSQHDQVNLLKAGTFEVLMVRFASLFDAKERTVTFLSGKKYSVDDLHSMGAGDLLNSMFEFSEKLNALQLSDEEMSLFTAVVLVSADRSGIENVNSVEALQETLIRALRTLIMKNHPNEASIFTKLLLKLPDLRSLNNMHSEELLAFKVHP
method_summary: Inhibition of REV-ERBbeta (unknown origin) expressed in HEK293 cells incubated for 24 hrs assessed as inhibition of receptor-mediated transcriptional repression by REV-ERB luciferase reporter assay
pIC50 overview
Give only the number. pIC50 is defined as minus log10 of concentration in molar units.

> print(dat)
                                smiles.repr                              assay.system  readout.value
1  CN1CCN(Cc2cc(CNC3(c4ccccc4F)CCCC3)ccc2O)CC1  Nuclear receptor subfamily 1 group D member 2 (Homo sapiens)           4.76

Would you kindly share the measured pIC50 for CN1CCC(Cc2cccc(CNC3(c4ccc(F)cc4)CCCC3)c2)CC1 ? 5.87
